// values below are IC50; system is UniProtKB O60725
Sequence (O60725 whole entry, species assumed): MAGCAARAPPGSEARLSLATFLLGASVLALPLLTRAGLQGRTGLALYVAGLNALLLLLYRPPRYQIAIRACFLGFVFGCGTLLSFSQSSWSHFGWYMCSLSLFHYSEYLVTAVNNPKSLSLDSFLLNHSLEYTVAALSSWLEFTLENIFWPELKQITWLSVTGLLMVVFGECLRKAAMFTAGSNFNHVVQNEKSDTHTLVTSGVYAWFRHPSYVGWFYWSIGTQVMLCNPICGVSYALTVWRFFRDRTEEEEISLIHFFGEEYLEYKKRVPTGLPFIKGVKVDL
One number for each entry, in µM.

Returns the measured IC50 for the input molecule. Input: CCCCCCCCn1cc(CC(=O)NC)c2cc(-c3cccc(C)c3)ccc21 [Compound 3-7]
2.1

Give me IC50 for each of these molecules, listed below.
1. CCCCCCCCn1cc(C(N)=O)c2cc(-c3cccc(C)c3)ccc21 [Compound 5-1]
2. CCCCCCCCn1cc(CC(=O)N2CCN(C)CC2)c2cc(-c3cccc(C)c3)ccc21 [Compound 3-6]
3. CCCCCCCCn1cc(CC(N)=O)c2cc(-c3cccc(C)c3)ccc21 [cysmethynil, reference compound]

[30, 1.7, 1.5]

Returns the measured IC50 for the input molecule. Input: CC(C)=CCn1cc(CN2CCOCC2)c2cc(-c3cccc(C)c3)ccc21 [Compound 6-6]
2

---

Test Protocol: Binding to fetal bovine serum (plasma protein binding), centrifugal filter device, HPLC
Type: in vitro ADME
Condition Set: bovine, 5% w/v fetal bovine serum in phosphate buffered saline, 1 uM, 5% fetal bovine serum in PBS; read-out: % Bound Average (converted)
Protocol: Semi-automatic high-throughput determination of plasma protein binding using a 96-well plate filtrate assembly and fast liquid chromatography—tandem mass spectrometry. […] Stock solutions were prepared in DMSO at 100× higher concentrations. A 5% w/v solution of fetal bovine serum in phosphate buffered saline was prepared. […]
Assignment: determine reported fraction unbound at 30 min, 1 µM for the given compounds.
Numbers only.

Some entries whose results are on file:
Returns the measured fraction unbound at 30 min, 1 µM for the input compound. Input: CCCCCCCCn1cc(CN(CC)CC)c2cc(-c3cccc(C)c3)ccc21 [Compound J17G]
0.182

Item: CCCCCCCCn1cc(CC(N)=O)c2cc(-c3cccc(C)c3)ccc21 [cysmethynil, reference compound]
0.0962

New cases:
Returns the measured fraction unbound at 30 min, 1 µM for the input compound. Input: CCN(CC)Cc1cn(CC=C(C)C)c2ccc(-c3cccc(C)c3)cc12 [Compound J38G]
0.776

---

Test Protocol: Binding to fetal bovine serum (plasma protein binding), centrifugal filter device, HPLC
Assay type: in vitro ADME
Condition Set: bovine, 5% w/v fetal bovine serum in phosphate buffered saline, 4 uM, 5% fetal bovine serum in PBS; read-out: % Bound Average (converted)
Assignment: determine reported fraction unbound at 30 min, 4 µM for the given compounds.
One number for each entry.

Some entries whose results are on file:
Returns the measured fraction unbound at 30 min, 4 µM for the input compound. Input: CCCCCCCCn1cc(CC(N)=O)c2cc(-c3cccc(C)c3)ccc21 [cysmethynil, reference compound]
0.104

Item: CCCCCCCCn1cc(CN(CC)CC)c2cc(-c3cccc(C)c3)ccc21 [Compound J17G]
0.272

Now consider the entry below.
Returns the measured fraction unbound at 30 min, 4 µM for the input compound. Input: CCN(CC)Cc1cn(CC=C(C)C)c2ccc(-c3cccc(C)c3)cc12 [Compound J38G]
0.638

---

Test Protocol: Binding to fetal bovine serum (plasma protein binding), centrifugal filter device, HPLC
Assay type: in vitro ADME
Condition Set: bovine, 5% w/v fetal bovine serum in phosphate buffered saline, all conc (1, 4, 10, 25 uM); read-out: % Bound Average, all conc (converted)
Experimental Endpoint: fraction unbound at 30 min
Numbers only.

Some entries whose results are on file:
Returns the measured fraction unbound at 30 min for the input compound. Input: CCN(CC)Cc1cn(CC=C(C)C)c2ccc(-c3cccc(C)c3)cc12 [Compound J38G]
0.729

Item: CCCCCCCCn1cc(CN(CC)CC)c2cc(-c3cccc(C)c3)ccc21 [Compound J17G]
0.264

New cases:
Returns the measured fraction unbound at 30 min for the input compound. Input: CCCCCCCCn1cc(CC(N)=O)c2cc(-c3cccc(C)c3)ccc21 [cysmethynil, reference compound]
0.104
